Target: human TLR7 (Homo sapiens, UniProt Q9NYK1)
Sequence (Q9NYK1 27-1049): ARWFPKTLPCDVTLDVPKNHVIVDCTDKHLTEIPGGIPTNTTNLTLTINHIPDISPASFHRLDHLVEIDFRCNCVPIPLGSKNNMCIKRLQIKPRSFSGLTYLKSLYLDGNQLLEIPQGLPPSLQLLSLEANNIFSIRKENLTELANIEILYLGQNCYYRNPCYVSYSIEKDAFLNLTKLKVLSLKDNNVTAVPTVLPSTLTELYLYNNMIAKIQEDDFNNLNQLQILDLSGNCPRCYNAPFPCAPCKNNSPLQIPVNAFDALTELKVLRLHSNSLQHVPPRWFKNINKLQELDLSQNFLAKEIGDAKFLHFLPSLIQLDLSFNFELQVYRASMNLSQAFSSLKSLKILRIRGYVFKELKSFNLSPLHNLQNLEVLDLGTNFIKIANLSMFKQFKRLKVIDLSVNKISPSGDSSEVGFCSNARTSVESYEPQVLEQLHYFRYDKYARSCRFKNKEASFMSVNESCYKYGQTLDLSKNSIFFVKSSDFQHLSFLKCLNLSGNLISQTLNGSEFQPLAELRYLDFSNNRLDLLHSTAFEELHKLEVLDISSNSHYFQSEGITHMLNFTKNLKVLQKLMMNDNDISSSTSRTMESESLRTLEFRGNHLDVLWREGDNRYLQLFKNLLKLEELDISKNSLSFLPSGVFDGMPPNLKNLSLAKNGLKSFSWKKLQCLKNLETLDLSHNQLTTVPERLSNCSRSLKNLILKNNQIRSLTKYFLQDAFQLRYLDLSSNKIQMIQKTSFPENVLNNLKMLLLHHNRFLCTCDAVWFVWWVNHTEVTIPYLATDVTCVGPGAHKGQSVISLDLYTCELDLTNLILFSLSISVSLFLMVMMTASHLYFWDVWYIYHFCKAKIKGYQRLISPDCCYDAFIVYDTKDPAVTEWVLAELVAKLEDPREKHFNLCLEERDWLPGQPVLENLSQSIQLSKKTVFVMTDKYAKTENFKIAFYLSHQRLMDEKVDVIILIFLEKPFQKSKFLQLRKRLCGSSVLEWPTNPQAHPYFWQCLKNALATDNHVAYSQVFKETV
Test: HEK293-Blue-hTLR-7 cells assay
Settings: HEK293-Blue-hTLR7 cells, R848 stimulation, 20 hrs, SEAP reporter; read-out: HEK/hTLR7 IC50
ASSAY_READOUT: IC50 (nM)

COMPOUND	MEASURED_TARGET	QUANTITY_UNIT	IC50
[2H]c1ccc2c(N3C[C@@H]4CN(c5ccc(CCN6C[C@H](OC)[C@@H](N)C6)cn5)CCN4[C@@H](C)C3)ccc(C#N)c2n1 [Example 122]	human TLR7 (Homo sapiens, UniProt Q9NYK1)	nM	9
C[C@@H]1CN(c2ccc(C#N)c3ncccc23)C[C@@H]2CN(c3cc(N4CCNCC4)ccn3)CCN21 [Example 34]	human TLR7 (Homo sapiens, UniProt Q9NYK1)	nM	20
[2H]c1ccc2c(N3C[C@@H]4CN(CCc5ccc(N6CC7(CN(C)C7)C6)nc5)CCN4[C@H](C)C3)ccc(C#N)c2n1 [Example 64]	human TLR7 (Homo sapiens, UniProt Q9NYK1)	nM	23
C[C@@H]1CN(c2ccc(C#N)c3ncccc23)C[C@@H]2CN(c3nccc(N4CC(N)C4)n3)CCN21 [Example 39]	human TLR7 (Homo sapiens, UniProt Q9NYK1)	nM	21

[a] C[C@@H]1CN(c2ccc(C#N)c3ncccc23)C[C@@H]2CN(Cc3cccc4c3CNC4)CCN21 [Example 72]
[b] C[C@@H]1CN(c2ccc(C#N)c3ncccc23)C[C@@H]2CN(c3ccnc(N4CC(N)C4)c3)CCN21 [Example 41]
Exercise: I'm curious, which of these has a smaller IC50 number: a or b ? Please reply using the label of the selected record.
Solution: a

[1] [2H]c1ccc2c(N3C[C@@H]4CN(c5ncc(N6C[C@@H]7C[C@H]6CN7)cc5C)CCN4[C@@H](C)C3)ccc(C#N)c2n1 [Example 111]
[2] [2H]c1ccc2c(N3C[C@@H]4CN(CCc5ccnc(N6C[C@@H](N)[C@@H](F)C6)c5)CCN4[C@H](C)C3)ccc(C#N)c2n1 [Example 89]
[3] [2H]c1ccc2c(N3C[C@@H]4CN(Cc5ccc(N6CC(C)(N)C6)nc5C)CCN4[C@H](C)C3)ccc(C#N)c2n1 [Example 79]
Exercise: Exam item: list the entries in increasing order of IC50. Use the labels to give the requested order.
Solution: 1, 3, 2

[a] Cc1cc(N2CCN3[C@@H](C2)CN(c2ccc(C#N)c4ncccc24)C[C@H]3C)cc(N2CC(C)(N)C2)n1 [Example 73]
[b] [2H]c1ccc2c(N3C[C@@H]4CN(c5ncc(C(=O)N6CC7(CN(C)C7)C6)cc5C)CCN4[C@H](C)C3)ccc(C#N)c2n1 [Example 102]
Exercise: Looking at a and b , which one comes out lower in IC50 terms? Choose, then provide that item's label.
Solution: b
